- Tested on: panel of nearly 500 cancer cell lines
- test-description: Cancer Cell Line Encyclopedia profiling, 3-day CellTiter-Glo
- Type: cell-based
- assay-conditions: Homo sapiens, NCI-H28
reported-endpoint: pIC50
In simple prose, pIC50 is minus the logarithm base ten of a concentration in moles per litre.

Consider the compound shown here: CN(C)C(=O)c1cc2cnc(Nc3ccc(N4CCNCC4)cn3)nc2n1C1CCCC1 [Ribociclib] What is its recorded pIC50?
5.21

---

- Test system: panel of nearly 500 cancer cell lines
- test-description: Cancer Cell Line Encyclopedia profiling, 3-day CellTiter-Glo
- Assay type: cell-based
- assay-conditions: JHH7
pIC50: −log10 of the molar value.
reported-endpoint: pIC50

Quick one: pIC50 of CN(C)C(=O)c1cc2cnc(Nc3ccc(N4CCNCC4)cn3)nc2n1C1CCCC1 [Ribociclib] ?
< 5.10
